Field: normalized growth. Provide a value for each of the molecules that follow.
Test protocol: chemical genetic growth profiling, strain panel (AID 1159580);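 further: tested at 20 µM; growth read once vehicle control cultures reached saturation at 30 °C; 1 = growth at the plate median or of vehicle wells; lower values mean less growth of the strain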
Condition notes: S. cerevisiae deletion strains, growth OD, locus YJR043C, strain POL32, active compounds read low
The whole screen tested about 5,500 compounds, of which about 2,000 (36%) were called active. Not shown: some 18% with an inconclusive outcome. Some of the results follow.
Output: the number by itself.

Param item = `Cc1cc(C)cc(NC(=S)N2CCN(c3ncc(C(F)(F)F)cc3Cl)CC2)c1` ; retrieve measured normalized growth.
1.01

Need normalized growth of CC(=O)/C=C\[C@@H]1[C@@]2(C)CCCC(C)(C)C2CC[C@@]1(C)O (some centres undefined) , thanks.
1.03

What value of normalized growth has been recorded for this entry: `CCCc1nc(-c2ccccn2)[nH]c(=O)c1CC1CC1`
0.923

What does the record list as normalized growth for `O=c1oc2cc(O)ccc2s1` ?
0.962
